Target: T1, recombinant His-tagged full-length ERG (UniProt P11308 1-479, biotinylated with NHS-PEG4 biotin for the OctetRED assays)
T1 construct: mature; Baculovirus expression in SF9 cells, Ni-NTA purified; also called wild-type ERG; wtERG; not shown: His tag
T1 sequence (looked up): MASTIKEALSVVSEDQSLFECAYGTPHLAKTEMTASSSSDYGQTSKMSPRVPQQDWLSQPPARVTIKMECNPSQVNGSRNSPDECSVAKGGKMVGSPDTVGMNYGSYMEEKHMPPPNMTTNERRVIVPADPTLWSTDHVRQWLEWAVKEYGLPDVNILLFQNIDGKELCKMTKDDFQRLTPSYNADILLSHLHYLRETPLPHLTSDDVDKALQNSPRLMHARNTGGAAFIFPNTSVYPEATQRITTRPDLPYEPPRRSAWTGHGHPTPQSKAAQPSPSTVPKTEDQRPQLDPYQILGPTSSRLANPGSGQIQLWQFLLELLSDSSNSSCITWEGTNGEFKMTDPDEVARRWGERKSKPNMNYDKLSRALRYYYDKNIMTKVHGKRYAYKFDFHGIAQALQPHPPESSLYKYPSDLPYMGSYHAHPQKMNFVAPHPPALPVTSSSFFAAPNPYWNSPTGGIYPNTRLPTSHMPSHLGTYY
Experiment: Kd table of synthetic peptides on ERG; assay not given
Measured Kd values are reported for all entries that follow.
property.label: Kd (µM)

[[record]]
binder = "Ac-LPPYLFT-OH (Variant inferred from the sentence on capping) [7-mer LPPYLFT capped at the N-terminus only (Ac-LPPYLFT)]"
recorded_number = 2.8

[[record]]
binder = "Ac-PPYL-NH2 (also called capped 4-mer peptide PPYL) [4PL-A (Ac-PPYL-NH2)]"
recorded_number = 1.4

[[record]]
binder = "LPPYLFT [EIP1 synthetic peptide LPPYLFT]"
recorded_number = 2.8

[[record]]
binder = "H-PPYL-NH2 (also called H2N-PPYL-NH2) [4PL-N]"
recorded_number = 94.2

